test: NCI Yeast Anticancer Drug Screen. Data for the rad50 strain (AID 155);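 further: 0% = growth of vehicle-only cultures of the same strain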; details: S. cerevisiae rad50 strain growth inhibition; at 50.0 µM; active compounds read high
The panel holds about 79,000 compounds, 15% with a hit somewhere; the sample as a whole holds those more often. Active and inactive are the calls of the source. No stated cut-off is given here; in the data, active means growth inhibition above about 70%; inactive means the rest.
value-kind: growth inhibition

Below, 6 molecules whose answers are already recorded.
molecule	value-kind	experimental-result
FC(F)(F)C(c1ccc(Cl)cc1)c1ccc(Cl)cc1	growth inhibition	42.6% (inactive)
CN(C)c1ccc(/C=C(\C#N)c2c(Cl)cccc2Cl)cc1	growth inhibition	-13.9% (inactive)
S=C1Cc2c([nH]c3ccccc23)-c2ccccc2N1	growth inhibition	-11.1% (inactive)
Clc1ccc(CSc2cnnc3c(Br)cccc23)c(Cl)c1	growth inhibition	-5.3% (inactive)
CC(=N/Nc1ccc([N+](=O)[O-])cc1[N+](=O)[O-])/C(C)=C/C1C=CCCC1(C)C (stereo not given)	growth inhibition	21.2% (inactive)
Cn1nc(-c2ccccc2)c(C(=O)/C=C/c2ccc(F)cc2)c(N2CCCCC2)c1=O	growth inhibition	2.55% (inactive)

Exercise: Fill blank: measured growth inhibition of the molecule [O-]/[N+](=C\c1ccc(Cl)cc1)c1ccccc1 is ____.
Key: -11.2% (inactive)

Exercise: Need growth inhibition of CN(C)C=NCc1ccc2c(c1)OCO2 , thanks.
Key: 2.05% (inactive)

Exercise: Consider the molecule shown here: COc1ccc(CC2=c3cc(OC)c(OC)cc3=CCN2)cc1OC What is its recorded growth inhibition?
Key: 12.1% (inactive)

Exercise: Returns the measured growth inhibition for the input molecule. Input: O=C(CCC(=O)Nc1ccc(Cl)c(Cl)c1)CC(=O)c1ccc(F)cc1
Key: -17.4% (inactive)

Exercise: Entry under review: CC1=CC2N(C=C1)C(c1cccc([N+](=O)[O-])c1)=NON2c1cc(C)ccn1 (stereo not given) . Reported growth inhibition?
Key: 7.05% (inactive)

Exercise: Reported growth inhibition, molecule CCN(CC)CCOC(=O)C(c1ccccc1)C1C=CCCC1 (stereo not given) : ____
Key: 38.8% (inactive)

Exercise: Find the recorded growth inhibition belonging to C#CC1(O)c2ccccc2C(=O)c2ccccc21 and report it.
Key: -1.05% (inactive)

Exercise: Request the reported growth inhibition associated with CC(C(=O)c1ccccc1)N(C)c1ccccc1 (stereo not given)
Key: 12.7% (inactive)

Exercise: Dear colleague, I am looking for the recorded growth inhibition of the following molecule: Cc1cc(C(N)=O)c2ccccc2n1
Key: -11% (inactive)

Exercise: # query: growth inhibition of entry S=C(NCc1ccco1)Nc1ccccc1Cl
Key: 5.5% (inactive)

Exercise: Query (molecule): CCCCN(CCCC)CCC(O)c1cc(C(F)(F)F)nc2c(C(F)(F)F)cccc12 (stereo not given) ; field requested: growth inhibition
Key: -0.6% (inactive)

Exercise: State the recorded growth inhibition for this entry: Cc1nn(C(=O)c2c(-c3ccccc3)noc2C)c(C)c1N=Nc1cc(C(F)(F)F)cc(C(F)(F)F)c1
Key: -6.2% (inactive)

Exercise: Which growth inhibition value belongs to CC1CC(C)(C)OC(c2ccc(Cl)cc2)O1 (stereo not given) ?
Key: 9.35% (inactive)

Exercise: growth inhibition lookup needed for Cc1cccc([N+](=O)[O-])c1C , thanks.
Key: 13.7% (inactive)

Exercise: So what's the measured growth inhibition for this one? CC(C)(C)c1ccc(P(=O)(O)C(C)(C)C)cc1
Key: -9.5% (inactive)

Exercise: Dear colleague, I am looking for the recorded growth inhibition of the following molecule: CNCC(N)=O
Key: -0.05% (inactive)

Exercise: Which growth inhibition reading was recorded for the molecule [O-][n+]1ccccc1Cl ?
Key: 8.05% (inactive)

Exercise: For the molecule shown here, CCCCCCCCCCCCOC(=O)CSC#N , give the reported growth inhibition.
Key: -5.65% (inactive)

Exercise: Requested read-out: growth inhibition. Entry: CCN1C(=O)N(C)C(O)c2c1nc1ccccn1c2=O (stereo not given)
Key: -14.1% (inactive)
